IC50 overview
Test system: IL-4 stimulated CD23 upregulation in human Ramos B cells (JAK-1/JAK-3, Stat-6)
protocol: Assay for Ramos B-Cell Line Stimulated with IL-4 (CD23 upregulation, FACS)
Format: cell-based
protocolConditions: Table III Example 3
quantityKind: IC50 (nM)

1) NS(=O)(=O)c1cccc(Nc2ncc(F)c(Nc3cccc(CNS(=O)(=O)C4CC4)c3)n2)c1; 102
2) NS(=O)(=O)c1ccc(Nc2ncc(F)c(Nc3ccc(CNS(=O)(=O)c4cccs4)cc3)n2)cc1; 133
3) CCS(=O)(=O)NCc1ccc(Nc2nc(Nc3cccc(S(N)(=O)=O)c3)ncc2C)cc1; 81.2
4) CCCNS(=O)(=O)c1cccc(Nc2ncc(C)c(Nc3ccc(CNS(=O)(=O)C4CC4)cc3)n2)c1; 23
5) CCNS(=O)(=O)c1ccc(Nc2ncc(C)c(Nc3cccc(CNS(=O)(=O)C4CC4)c3)n2)cc1; 236
6) Cc1cnc(Nc2cccc(S(=O)(=O)N[C@H](C(=O)O)C(C)C)c2)nc1Nc1cccc(CNS(=O)(=O)C2CC2)c1 [Compound I-146]; 12300
7) CCS(=O)(=O)NCc1ccc(Nc2nc(Nc3ccc(C)c(S(N)(=O)=O)c3)ncc2F)cc1Cl; 169
